Reference for the values: patent US20170121315A1

Biological target: MMP-2 (Homo sapiens)
Sequence (P08253 110-660): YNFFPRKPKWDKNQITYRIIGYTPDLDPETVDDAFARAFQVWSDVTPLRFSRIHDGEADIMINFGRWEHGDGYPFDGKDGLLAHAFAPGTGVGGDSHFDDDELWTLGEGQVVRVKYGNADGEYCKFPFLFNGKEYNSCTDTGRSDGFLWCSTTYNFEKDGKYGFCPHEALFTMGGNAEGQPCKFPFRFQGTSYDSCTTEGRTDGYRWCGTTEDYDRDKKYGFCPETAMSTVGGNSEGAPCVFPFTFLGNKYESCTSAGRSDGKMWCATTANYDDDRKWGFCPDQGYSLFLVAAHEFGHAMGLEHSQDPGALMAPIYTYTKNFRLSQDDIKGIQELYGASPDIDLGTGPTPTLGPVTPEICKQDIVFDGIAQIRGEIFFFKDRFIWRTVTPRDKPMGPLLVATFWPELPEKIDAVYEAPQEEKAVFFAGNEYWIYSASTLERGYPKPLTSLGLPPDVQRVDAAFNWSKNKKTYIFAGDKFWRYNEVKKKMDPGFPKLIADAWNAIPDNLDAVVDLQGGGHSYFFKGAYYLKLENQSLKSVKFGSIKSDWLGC
measure: IC50 (nM)

{"compound": "CCCCCOc1ccc2cc(C(=O)CC(CCn3nnc4ccccc4c3=O)C(=O)O)sc2c1 (racemic)", "target_desc": "MMP-2 (Homo sapiens)", "IC50 / nM": 350}
{"compound": "O=C(CC(CCn1nnc2ccccc2c1=O)C(=O)O)c1cc2cc(OCc3ccccc3)ccc2o1 (single isomer, unassigned; (+))", "target_desc": "MMP-2 (Homo sapiens)", "IC50 / nM": 6100}
{"compound": "CCCCCOc1ccc2c(C(=O)CC(CCn3nnc4ccccc4c3=O)C(=O)O)noc2c1 (racemic)", "target_desc": "MMP-2 (Homo sapiens)", "IC50 / nM": 95}
{"compound": "Cc1cccc(COc2ccc3oc(C(=O)CC(CCn4nnc5ccccc5c4=O)C(=O)O)cc3c2)c1 (racemic)", "target_desc": "MMP-2 (Homo sapiens)", "IC50 / nM": 19000}
{"compound": "CCCCCOc1ccc2c(C(=O)CC(CCn3nnc4ccccc4c3=O)C(=O)O)coc2c1 (racemic) [Example 89]", "target_desc": "MMP-2 (Homo sapiens)", "IC50 / nM": 290}

A: O=C(CC(CCn1nnc2ccccc2c1=O)C(=O)O)c1cc2cc(OCc3ccc(F)cc3)ccc2o1 (single isomer, unassigned; (+))
B: CCCCCOc1ccc2c(C(=O)CC(CCn3nnc4ccccc4c3=O)C(=O)O)coc2c1 (single isomer, unassigned) [Example 91]
Q: # min-compare on IC50 between A and B Answer format: the label of the selected item.
Result: B

###

pIC50: −log10 of the molar value.
Reported pIC50 for target or system MMP-9 (Homo sapiens), by entry.
measure: pIC50

Examples with their reported pIC50 follow.
{"compound": "O=C(CC(CCn1nnc2ccccc2c1=O)C(=O)O)c1cc2cc(OCCCc3ccccc3)ccc2o1 (racemic)", "pIC50": 4.77}
{"compound": "CCCCCCCOc1ccc2cc(C(=O)CC(CCn3nnc4ccccc4c3=O)C(=O)O)oc2c1 (single isomer, unassigned; (+))", "pIC50": 4.89}
{"compound": "O=C(CC(CCn1nnc2ccccc2c1=O)C(=O)O)c1noc2cc(OCc3ccc(F)cc3)ccc12 (racemic)", "pIC50": 6.72}
{"compound": "O=C(CC(CCn1nnc2ccccc2c1=O)C(=O)O)c1cc2cc(OCCC3CCOCC3)ccc2o1 (racemic)", "pIC50": 5.47}

a: O=C(CC(CCn1nnc2ccccc2c1=O)C(=O)O)c1noc2cc(OCc3ccccc3)ccc12 (racemic)
b: CCCOc1ccc2cc(C(=O)CC(CCn3nnc4ccccc4c3=O)C(=O)O)oc2c1 (racemic)
c: O=C(CC(CCn1nnc2ccccc2c1=O)C(=O)O)c1cc2ccc(OCC3CC3)cc2s1 (racemic)
d: CCCCCOc1ccc2c(C(=O)CC(CCn3nnc4ccccc4c3=O)C(=O)O)noc2c1 (racemic)
e: Cc1cccc(COc2ccc3oc(C(=O)CC(CCn4nnc5ccccc5c4=O)C(=O)O)cc3c2)c1 (racemic)
Q: Endpoint returns the given compounds ordered by ascending pIC50. Return value: ordered labels per request.
Result: e, b, c, a, d

###

Molecular target: human macrophage elastase (HME/hMMP-12) (Homo sapiens, UniProt P39900)
Sequence (P39900 106-470): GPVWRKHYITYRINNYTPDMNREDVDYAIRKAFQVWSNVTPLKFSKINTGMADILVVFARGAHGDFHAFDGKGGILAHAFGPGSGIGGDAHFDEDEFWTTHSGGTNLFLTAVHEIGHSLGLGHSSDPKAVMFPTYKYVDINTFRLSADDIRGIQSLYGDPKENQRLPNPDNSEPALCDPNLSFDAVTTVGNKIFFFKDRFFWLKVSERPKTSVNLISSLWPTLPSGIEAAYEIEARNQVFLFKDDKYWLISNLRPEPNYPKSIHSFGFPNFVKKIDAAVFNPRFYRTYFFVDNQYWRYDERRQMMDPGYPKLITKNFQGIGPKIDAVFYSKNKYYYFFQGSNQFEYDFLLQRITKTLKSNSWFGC
Assay: In vitro HME inhibition test (standard or high-sensitivity)
Settings: in some cases mean values, rounded to two significant figures
Description: The potency of the compounds according to the invention with respect to HME (MMP-12) is determined in an in vitro inhibition test. The HME-mediated amidolytic cleavage of a suitable peptide substrate leads to an increase in fluorescent light therein. The signal intensity of the fluorescent light is directly proportional to the enzyme activity. […]
measure: IC50 (nM)

{"compound": "O=C(CC(CCn1nnc2ccccc2c1=O)C(=O)O)c1cc2cc(OCc3cccc(Cl)c3)ccc2o1 (racemic)", "IC50 / nM": 1.6}
{"compound": "CCCOc1ccc2cc(C(=O)CC(CCn3nnc4ccccc4c3=O)C(=O)O)oc2c1 (single isomer, unassigned) [Example 60]", "IC50 / nM": 1.8}

I: O=C(CC(CCn1nnc2ccccc2c1=O)C(=O)O)c1cc2cc(OCC3CCCCC3)ccc2o1 (racemic) [Example 8]
II: CCCOc1ccc2cc(C(=O)CC(CCn3nnc4ccccc4c3=O)C(=O)O)oc2c1 (single isomer, unassigned) [Example 59]
III: CCCOc1ccc2c(C(=O)CC(CCn3nnc4ccccc4c3=O)C(=O)O)coc2c1 (racemic) [Example 86]
Q: Please put the entries in order of rising IC50. Thanks in advance for listing the labels in the requested order.
Result: III, I, II

###

Molecular target: human macrophage elastase (HME/hMMP-12) (Homo sapiens, UniProt P39900)
Assay: In vitro HME inhibition test (standard or high-sensitivity)
Details: in some cases mean values, rounded to two significant figures
measure: IC50 (nM)

Please review the following examples before continuing.
{"compound": "CCCCCCOc1ccc2cc(C(=O)CC(CCn3nnc4ccccc4c3=O)C(=O)O)oc2c1 (single isomer, unassigned; (-)) [Example 65]", "output_unit": "nM", "observed": 340}
{"compound": "O=C(CC(CCn1nnc2ccccc2c1=O)C(=O)O)c1cc2cc(OCCCc3ccccc3)ccc2o1 (racemic)", "output_unit": "nM", "observed": 4.6}
{"compound": "CC(C)CCCCOc1ccc2cc(C(=O)CC(CCn3nnc4ccccc4c3=O)C(=O)O)oc2c1 (racemic)", "output_unit": "nM", "observed": 3.1}
{"compound": "CCCCOc1ccc2cc(C(=O)CC(CCn3nnc4ccccc4c3=O)C(=O)O)oc2c1 (single isomer, unassigned; (+)) [Example 63]", "output_unit": "nM", "observed": 2.2}

1: O=C(CC(CCn1nnc2ccccc2c1=O)C(=O)O)c1cc2cc(OCCCc3ccc(C(F)(F)F)cc3)ccc2o1 (racemic)
2: O=C(CC(CCn1nnc2ccccc2c1=O)C(=O)O)c1cc2cc(OCc3ccccc3)ccc2o1 (single isomer, unassigned; (-)) [Example 29]
3: O=C(CC(CCn1nnc2ccccc2c1=O)C(=O)O)c1noc2cc(OCC3CCOCC3)ccc12 (racemic)
Q: Order the items by recorded IC50; the first position goes to the largest value. Provide the ranking by listing each label in its place in the requested order.
Result: 2, 1, 3

###

Target: human macrophage elastase (HME/hMMP-12) (Homo sapiens, UniProt P39900)
Construct: purchased R&D Systems 917-MP
Assay: In vitro HME inhibition test (standard or high-sensitivity)
Format: biochemical
Details: in some cases mean values, rounded to two significant figures
measure: IC50 (nM)

{"compound": "CCCCCOc1ccc2cc(C(=O)CC(CCn3nnc4ccccc4c3=O)C(=O)O)sc2c1 (racemic)", "target_desc": "human macrophage elastase (HME/hMMP-12) (Homo sapiens, UniProt P39900)", "output_unit": "nM", "observed": 2.7}
{"compound": "O=C(CC(CCn1nnc2ccccc2c1=O)C(=O)O)c1coc2cc(OCCC3CCOCC3)ccc12 (racemic)", "target_desc": "human macrophage elastase (HME/hMMP-12) (Homo sapiens, UniProt P39900)", "output_unit": "nM", "observed": 0.18}
{"compound": "O=C(CC(CCn1nnc2ccccc2c1=O)C(=O)O)c1coc2cc(OCC3CCCCC3)ccc12 (single isomer, unassigned; (-)) [Example 83]", "target_desc": "human macrophage elastase (HME/hMMP-12) (Homo sapiens, UniProt P39900)", "output_unit": "nM", "observed": 1.4}
{"compound": "COc1ccc(CCOc2ccc3oc(C(=O)CC(CCn4nnc5ccccc5c4=O)C(=O)O)cc3c2)cc1 (racemic)", "target_desc": "human macrophage elastase (HME/hMMP-12) (Homo sapiens, UniProt P39900)", "output_unit": "nM", "observed": 4.1}
{"compound": "CCCCCCCOc1ccc2cc(C(=O)CC(CCn3nnc4ccccc4c3=O)C(=O)O)oc2c1 (racemic) [Example 67]", "target_desc": "human macrophage elastase (HME/hMMP-12) (Homo sapiens, UniProt P39900)", "output_unit": "nM", "observed": 3.8}

1: O=C(CC(CCn1nnc2ccccc2c1=O)C(=O)O)c1cc2cc(OCc3ccccc3)ccc2o1 (racemic) [Example 28]
2: CC(C)COc1ccc2c(C(=O)CC(CCn3nnc4ccccc4c3=O)C(=O)O)coc2c1 (single isomer, unassigned; (+)) [Example 105]
Q: Hi team, can someone confirm which has the larger IC50: 1 or 2 ? Thanks. Response format: the label of the selected entry.
Result: 1

###

Heads up, these molecules all have IC50 values measured for MMP-8 (Homo sapiens, UniProt P22894).
measure: IC50 (nM)

{"molecule": "O=C(CC(CCn1nnc2ccccc2c1=O)C(=O)O)c1onc2cc(OCc3ccccc3)ccc12 (racemic) [Example 156]", "target_desc": "MMP-8 (Homo sapiens, UniProt P22894)", "observed": 2800}
{"molecule": "O=C(O)[C@@H]1[C@@H](Cn2nnc3ccc(C(F)(F)F)cc3c2=O)CC[C@H]1C(=O)c1cc2cc(OCCc3ccccc3)ccc2o1 (single isomer, unassigned; enantiomer 2) [Example 159]", "target_desc": "MMP-8 (Homo sapiens, UniProt P22894)", "observed": 310}
{"molecule": "CCCCCOc1ccc2cc(C(=O)CC(CCn3nnc4ccccc4c3=O)C(=O)O)sc2c1 (racemic) [Example 118]", "target_desc": "MMP-8 (Homo sapiens, UniProt P22894)", "observed": 9300}

1: O=C(O)[C@H]1[C@H](Cn2nnc3ccc(C(F)(F)F)cc3c2=O)CC[C@@H]1C(=O)c1cc2cc(OCCc3ccccc3)ccc2o1 (racemic) [Example 157]
2: Cc1cccc(COc2ccc3oc(C(=O)CC(CCn4nnc5ccccc5c4=O)C(=O)O)cc3c2)c1 (racemic) [Example 51]
Q: Pick one: 1 or 2 . Which has the bigger IC50 number? Kindly state the label of the option you pick.
Result: 2
